measurement target: UniProtKB P41145
Sequence (P41145 whole entry): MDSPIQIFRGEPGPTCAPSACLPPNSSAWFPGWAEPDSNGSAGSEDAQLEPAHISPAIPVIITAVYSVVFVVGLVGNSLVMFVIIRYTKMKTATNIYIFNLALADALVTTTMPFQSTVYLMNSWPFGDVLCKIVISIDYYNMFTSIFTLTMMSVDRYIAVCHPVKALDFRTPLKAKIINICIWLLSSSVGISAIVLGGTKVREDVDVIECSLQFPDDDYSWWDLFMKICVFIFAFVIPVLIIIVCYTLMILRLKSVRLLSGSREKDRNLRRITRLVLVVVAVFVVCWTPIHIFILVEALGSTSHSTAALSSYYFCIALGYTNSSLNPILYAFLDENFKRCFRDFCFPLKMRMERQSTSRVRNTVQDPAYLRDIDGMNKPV
method description: κ-opioid receptor [35S]GTPγS functional assay, U-2 OS cells
Type: biochemical
Design: expressed in transfected cells; host or cells: U-2 OS cells (in-house membranes)
We begin with a simple list: items and their reported EC50.
Answer with a number only, understood to be in nM.

// below: answered molecules
Reported EC50 for COc1ccc2c(c1)[C@@]13CC[C@H](NCC(C)C)C[C@@]1(O)[C@@H](C2)N(CC1CC1)CC3 was 41.6

The reported value for O=C(N[C@H]1C[C@@]2(O)[C@H]3Cc4ccc(O)cc4[C@@]2(CCN3CC2CC2)CC1O)C1CCCCC1 (some centres unmarked) in terms of EC50 is 15.9

// CCC(=O)N[C@H]1C[C@@]2(O)[C@H]3Cc4ccc(O)cc4[C@@]2(CCN3CC2CC2)C[C@H]1O : EC50 value = 29.3

Value of measured EC50 for the entry COc1ccc2c(c1)[C@@]13CCC(=O)C[C@@]1(O)[C@@H](C2)N(CC1CC1)CC3 : 633

// COc1ccc2c(c1)[C@]13CCN(CC4CC4)[C@H](C2)[C@]1(O)C[C@H](OCC(C)C)[C@H](O)C3 : EC50 value = 14500

Consider the record given below.
The molecule COc1ccc2c(c1)[C@@]13CC[C@H](NC(=O)C(C)C)C[C@@]1(O)[C@@H](C2)N(CC1CC1)CC3 showed EC50 equal to 10.6
